Every entry's value here was drawn from paper PMC10447463.

Assay: Conversion rate (CR) assay with fluorescamine
Assay type: physicochemical
Conditions: Fig. S7 panel B; conversion rate, fluorescamine assay
metric: CR / % (%)
Response body: numeric value in %, unit text excluded.

Ask: State the recorded CR / % for this entry: CKAKAQANMWQ
Reply: 92.5

Ask: Find the recorded CR / % belonging to QCKFKQFFNM and report it.
Reply: 98.7

Ask: If you can, please state the reported CR / % value of KFKFKFQF .
Reply: 94

Ask: What measured CR / % goes with CEIEIQI ?
Reply: 59

###

Assay: Turbidity, derived count rate of scattered light
Type: physicochemical
Conditions: turbidity, derived count rate of scattered light, log10; data of Figure 2D
Define the label as met when Log10 Count Rate is strictly less than 3 and as not met in all remaining cases.

Ask: Decide: Log10 Count Rate of RGDKIKIQINMC strictly below 3?
Reply: not met

Ask: Regarding CQFQFQF , kindly confirm whether its Log10 Count Rate is beneath 3.
Reply: not met

Ask: I wonder whether KIKQII has Log10 Count Rate below 3. Can you tell?
Reply: met

Ask: Field: below-cutoff. Rule: recorded Log10 Count Rate strictly less than 3. Subject: ILKNLSRSRKIKIQIC
Reply: not met

Ask: Hello, is Log10 Count Rate of the following substance strictly smaller than 3? HRRHFRHKITKKK
Reply: met

Ask: Is the reported Log10 Count Rate for KIKIQINMWQRGD strictly below 3?
Reply: not met

Ask: Decide: Log10 Count Rate of QCKIKIQI strictly below 3?
Reply: not met

Ask: Dear colleague, could you confirm whether Log10 Count Rate of KIKIQIAMWQ falls below 3? Thanks.
Reply: met

Ask: Is Log10 Count Rate of KIKQIINM strictly below 3?
Reply: not met

Ask: hey, is Log10 Count Rate for CKFKQFFNMWQ lower than 3 or not?
Reply: not met

Ask: Dear colleague, could you confirm whether Log10 Count Rate of NMWQKAKAQA falls below 3? Thanks.
Reply: met

Ask: A record lists CRFRFQF . Is its Log10 Count Rate below 3?
Reply: met

Ask: Problem: For the substance KIKIQIII , is Log10 Count Rate under 3?
Reply: met

Ask: Threshold test, Log10 Count Rate < 3: QCKFKQFFNMWQ
Reply: not met

Ask: I'd appreciate it if you could check whether CKAKAQANM has Log10 Count Rate smaller than 3.
Reply: met

Ask: Does the reported Log10 Count Rate of the following substance sit strictly below 3? HHHHEIEIEIEI
Reply: met

Ask: For KKFQKKFQ , is the recorded Log10 Count Rate below the cut-off of 3?
Reply: met

Ask: Take the substance KIKIQINMWWWQ and say whether its Log10 Count Rate is less than 3.
Reply: not met

###

Assay: Zeta-potential measurement
Assay type: physicochemical
Kindly supply the reported Zeta category ( +1 = if > 4 mV;-1 = if < -4 mV; 0 = -4mV to 4 mV) values for the records listed here.

Ask: Suppose we examine the substance KIKIKIQI [TG13] ; what Zeta category ( +1 = if > 4 mV;-1 = if < -4 mV; 0 = -4mV to 4 mV) value has been reported?
Reply: 1 (+1 = if > 4 mV)

Ask: Any idea what its Zeta category ( +1 = if > 4 mV;-1 = if < -4 mV; 0 = -4mV to 4 mV) is? The substance is QCKFKQFFNM [CK11]
Reply: 1 (+1 = if > 4 mV)

Ask: Fill in: Zeta category ( +1 = if > 4 mV;-1 = if < -4 mV; 0 = -4mV to 4 mV) of KIKQIIN [JGA3] is ___
Reply: -1 (-1 = if < -4 mV)

Ask: Requested read-out: Zeta category ( +1 = if > 4 mV;-1 = if < -4 mV; 0 = -4mV to 4 mV). Entry: CQFQFQF [QBL4]
Reply: -1 (-1 = if < -4 mV)

Ask: Entry under review: QCKFKQFF [CK12] . Reported Zeta category ( +1 = if > 4 mV;-1 = if < -4 mV; 0 = -4mV to 4 mV)?
Reply: 1 (+1 = if > 4 mV)

Ask: Can you share its Zeta category ( +1 = if > 4 mV;-1 = if < -4 mV; 0 = -4mV to 4 mV)? I mean this substance: KIKIQIN [JGB3]
Reply: 0 (0 = -4mV to 4 mV)

Ask: Look up Zeta category ( +1 = if > 4 mV;-1 = if < -4 mV; 0 = -4mV to 4 mV) for this substance: CKFKFQFNM [BL3]
Reply: 1 (+1 = if > 4 mV)

Ask: Which Zeta category ( +1 = if > 4 mV;-1 = if < -4 mV; 0 = -4mV to 4 mV) value is on record for CKAKAQA [TM155] ?
Reply: -1 (-1 = if < -4 mV)

Ask: Would you kindly share the measured Zeta category ( +1 = if > 4 mV;-1 = if < -4 mV; 0 = -4mV to 4 mV) for QCKFKFQFNMWQ [CK7] ?
Reply: 1 (+1 = if > 4 mV)

Ask: Recorded Zeta category ( +1 = if > 4 mV;-1 = if < -4 mV; 0 = -4mV to 4 mV) of CRFRVPF [CN8] , please.
Reply: 1 (+1 = if > 4 mV)

Ask: // Zeta category ( +1 = if > 4 mV;-1 = if < -4 mV; 0 = -4mV to 4 mV) lookup, key: CSISIQINM [TM145]
Reply: -1 (-1 = if < -4 mV)

Ask: Need Zeta category ( +1 = if > 4 mV;-1 = if < -4 mV; 0 = -4mV to 4 mV) of QCKIKQIINM [CK5] , thanks.
Reply: 1 (+1 = if > 4 mV)

Ask: Which Zeta category ( +1 = if > 4 mV;-1 = if < -4 mV; 0 = -4mV to 4 mV) reading was recorded for the substance RGDKIKIQINMWQ [MG9a] ?
Reply: 1 (+1 = if > 4 mV)

Ask: I'd like to know its Zeta category ( +1 = if > 4 mV;-1 = if < -4 mV; 0 = -4mV to 4 mV). The substance in question is KIKIQIII [TG7]
Reply: 1 (+1 = if > 4 mV)

Ask: Any idea what its Zeta category ( +1 = if > 4 mV;-1 = if < -4 mV; 0 = -4mV to 4 mV) is? The substance is KIKIQII [TG1 / (KM4)]
Reply: 1 (+1 = if > 4 mV)

Ask: Which Zeta category ( +1 = if > 4 mV;-1 = if < -4 mV; 0 = -4mV to 4 mV) value belongs to KIKIQIC [TM112 / CN11] ?
Reply: 1 (+1 = if > 4 mV)

Ask: I have this substance here, KIKQIINM [JGA2] , and I need its recorded Zeta category ( +1 = if > 4 mV;-1 = if < -4 mV; 0 = -4mV to 4 mV).
Reply: 1 (+1 = if > 4 mV)

###

Hi there, I'd appreciate the recorded Zeta-pot. / mV for every entry that follows.
Assay: Zeta-potential measurement
Assay type: physicochemical
Conditions: zeta potential of peptide; Fig S15 source data
The reply should contain only the number, in mV.

Ask: Quick one: Zeta-pot. / mV of RGDKIKIQI [MG14] ?
Reply: -0.899

Ask: Recorded Zeta-pot. / mV for KIKIQINM [JGB2] , please?
Reply: 8.51

Ask: Given QCKFKQFF [CK12] , state its recorded Zeta-pot. / mV.
Reply: 4.94

Ask: Request the reported Zeta-pot. / mV associated with QCKFKFQFNMWQ [CK7]
Reply: 21.07

Ask: Item under review: CETMYDKILKNLSRSR [CR16] . Reported Zeta-pot. / mV?
Reply: 0.41

Ask: Name the reported Zeta-pot. / mV value associated with the substance CKFKFQFNM [BL3]
Reply: 15.13

Ask: # Zeta-pot. / mV lookup, item KIKIKIQI [TG13]
Reply: 6.97

Ask: Need Zeta-pot. / mV of KVKVKVQV [JG14 / TG14] , thanks.
Reply: -3.41

Ask: Suppose we examine the substance RGEKIKIQINM [CN18] ; what Zeta-pot. / mV value has been reported?
Reply: 15.3

Ask: Quick one: Zeta-pot. / mV for KIKIQINMAQ [JR2] ?
Reply: 3.07

Ask: Item CKIKQIIRGD [psis22] has what recorded Zeta-pot. / mV?
Reply: 13.2

Ask: Need Zeta-pot. / mV of KWKWQW [KB3] , thanks.
Reply: 7.55

Ask: Recorded Zeta-pot. / mV for KIKQII [msis21] , please?
Reply: -12.67

Ask: Reported Zeta-pot. / mV for KIKIQINAWQ [JR3-II] : what is it?
Reply: 13.1

Ask: Param item = KIKIQI [JJA4] ; retrieve measured Zeta-pot. / mV.
Reply: -5.63

Ask: Any idea what its Zeta-pot. / mV is? The substance is CKIKQIINMWQ [MG5a / CK17]
Reply: 13.4

Ask: Give its Zeta-pot. / mV value. Item: KIKIKIKIWWWW [TM12]
Reply: 15.2
